# Tested on: KB-3-1
# method notes: Cytotoxic Profiling of Annotated Libraries Using Quantitative High-Throughput Screening (AID 1296008); also: % is scaled to controls: 0 for no effect and ±100 for the full control effect; nearly all actives have a fitted effect of over 60% in size
# stated conditions: Five cell lines viability, CellTiter-Glo ATP luminescence, 48-72 h; hits give low values
Records with an inconclusive call do not appear. Active and inactive are the calls of the source. Calls follow the shape of the dose curve; as a rule, active = well fitted inhibition curve with a large enough effect; inconclusive = small, poorly fitted or top-dose-only effect; inactive = flat fitted curve, though single readings scatter.
reported property: max response

* CC1=CC(=O)OC(C)(CC(C)(O)C(=O)O)C1 (configuration not stated) | 6.61% (inactive)
* CCOC(=O)c1ccc(N(C)c2csc(-c3ccccc3)n2)cc1 | 0.515% (inactive)
* C=C1C[C@]23C[C@H]1CC[C@H]2[C@]1(C)CCC[C@@]2(CO)C(=O)O[C@H]([C@H]21)[C@@H]3O | 6.36% (inactive)
* CC(C)(O)C1=CCC23COC(C2)C(O)(C(=O)O)CCC13 (configuration not stated) | 2.8% (inactive)
* C(#Cc1cccc(CN2CCOCC2)c1)CCN1CCCCC1 | 2.31% (inactive)
* COc1ccc([C@@H]2N[C@H](C(=O)O)Cc3c2[nH]c2ccccc32)cc1CN1CCN(c2ccccc2F)CC1 | -4.47% (inactive)
* CC(=O)O[C@]1(C(C)=O)CC[C@H]2[C@@H]3CCC4=CC(=O)CC[C@]4(C)[C@@]3(F)[C@@H](O)C[C@@]21C | 28.7% (inactive)

###

# System: HaCat
# method notes: Cytotoxic Profiling of Annotated Libraries Using Quantitative High-Throughput Screening (AID 1296008); also: % is scaled to controls: 0 for no effect and ±100 for the full control effect; nearly all actives have a fitted effect of over 60% in size
# stated conditions: Five cell lines viability, CellTiter-Glo ATP luminescence, 48-72 h; hits give low values
Inconclusive results are not listed. The source made the active and inactive calls. Calls come from the whole dose curve; as a rule, active = well fitted inhibition curve with a large enough effect; inconclusive = small, poorly fitted or top-dose-only effect; inactive = flat fitted curve, though single readings scatter.
reported property: max response

• COC(=O)C1(Cc2ccc(O)cc2)OC(=O)C(OC)=C1c1ccc(O)cc1 (stereo unspecified) = -3.39% (inactive)
• OC[C@H]1O[C@@H](Oc2cc(O)cc(-c3cc4ccc(O)cc4o3)c2)[C@H](O)[C@@H](O)[C@@H]1O = -4.29% (inactive)
• CC1=C(CC(=O)O)c2cc(F)ccc2C1=Cc1ccc(S(C)(=O)=O)cc1 = -6.44% (inactive)
• CC(=O)O[C@@H]1[C@@H](OC(=O)/C=C/c2ccccc2)[C@H](C)O[C@@H](O[C@H]2[C@@H]3C=CO[C@@H](O[C@@H]4O[C@H](CO)[C@@H](O)[C@H](O)[C@H]4O)[C@@H]3[C@@]3(CO)O[C@@H]23)[C@@H]1OC(C)=O = -6.34% (inactive)
• CC1(C)O[C@]23C[C@H]1C[C@H](OC(=O)c1ccoc1)[C@]2(C)[C@@H](OC(=O)c1ccoc1)CCC3(C)O (stereo partly specified) = 2.39% (inactive)
• CC1=CCC2C(C)(CO)CCCC2(C)C1CC12OC1C(O)C(CO)=CC2O (stereo unspecified) = -8.88% (inactive)
• CC1(C)CCCC2(C)C(CO)C3CCC2C31 (stereo unspecified) = 0.929% (inactive)
• CC(=O)OC[C@]1(O)[C@H]2[C@H](OC(=O)CC(C)C)OC=C(CO[C@@H]3O[C@H](CO)[C@@H](O)[C@H](O)[C@H]3O)[C@H]2C[C@@H]1O = -3.61% (inactive)
• COC(=O)[C@@H]1C2CC3c4[nH]c5ccccc5c4CCN3CC2CC[C@@H]1O (stereo partly specified) = -0.215% (inactive)
• NC(=O)c1ccc(OCC2NC(=O)C3CCCN3C2=O)cc1 (stereo unspecified) = -3.74% (inactive)
• COc1ccc(C)c2sc(NC(=O)c3ccncc3)nc12 = 4.45% (inactive)
• COC(=O)C1=CO[C@@H](O[C@@H]2O[C@H](CO)[C@@H](O)[C@H](O)[C@H]2O)[C@@H]2[C@@H](C)[C@@H](O)C[C@H]12 = -10.2% (inactive)
• CCNC(=O)[C@H]1O[C@H](n2cnc3c(NCC(c4ccccc4)c4ccccc4)nc(C(=O)NCCNC(=O)NC4CCN(c5ccccn5)CC4)nc32)[C@H](O)[C@@H]1O = -11.9% (inactive)
• Cc1cc(C)c(S(=O)(=O)N(Cc2ccc(-c3cccc(S(C)(=O)=O)c3)cc2)Cc2ccc(C(F)(F)F)o2)c(C)c1 = 2.94% (inactive)
• CC1CCC2C(C)(C)C(O)CCC2(C)C12Cc1c(O)cc3c(c1O2)CN=C3N (stereo unspecified) = 3.03% (inactive)
• OC1COC(OCC2OC(OCCc3ccccc3)C(O)C(O)C2O)C(O)C1O (stereo unspecified) = -7.45% (inactive)
• NS(=O)(=O)NCCNc1nonc1C(=Nc1ccc(F)c(Br)c1)NO = -46.4% (inactive)
• CC(=O)O[C@@]1(C)C[C@@H](O)[C@]2(O)C=CO[C@@H](O[C@@H]3O[C@H](CO)[C@@H](O)[C@H](O)[C@H]3O)[C@@H]21 = 3.46% (inactive)
• COC1CC(=O)C23C(=O)NC(CC(C)C)C2C(C)C(C)=CC3/C=C(\C)CCC1O (stereo unspecified) = -17.4% (inactive)
• N#CCc1ccc(O)cc1O[C@@H]1O[C@H](CO)[C@@H](O)[C@H](O)[C@H]1O = -21.9% (inactive)
• CC1CCC(=O)CC(O)C(O)CC(=O)O1 (stereo unspecified) = 4.62% (inactive)
• CCCn1cnc2c(NCc3ccccc3)nc(N[C@H](CC)CO)nc21 = 0.198% (inactive)
• CC(/C=C/C1(O)C(C)CC(O)CC1(C)C)OC1OC(CO)C(O)C(O)C1O (stereo unspecified) = -9.66% (inactive)
• O=C(/C=C/c1ccccc1)OCC1=CC[C@@H]2C(C(=O)O)=CO[C@@H](O[C@@H]3O[C@H](CO)[C@@H](O)[C@H](O)[C@H]3O)[C@H]12 = 0.992% (inactive)
• CCN(c1cc(C#CCN2CCOCC2)cc(C(=O)NCc2c(C)cc(C)[nH]c2=O)c1C)C1CCC(N(C)CCOC)CC1 (stereo unspecified) = -3.84% (inactive)
• CC1CCCC2OC2C(=O)c2c(O)cc(O)cc2CC(=O)O1 (stereo unspecified) = -2.51% (inactive)
